Measured growth values are reported for all entries that follow.
# System: MCF7 breast
# ASSAY_EXPLANATION: NCI-60 one-dose screen, 48 h (100 = growth as untreated, 0 = no growth, -100 = all killed)
# CONDITIONS: 10 µM unless noted
This is part of a sample that, as a whole, favours compounds with a hit. Of some 83,000 tested, about 20% had one in any assay. Active and inactive are the calls of the source. The calls were made as follows: active = growth percent below 10; inactive = the rest.

q: What does the data say about its growth? Entry: "CC[C@]12C=CCN3CC[C@@]4(c5ccc(OC)cc5N(C)[C@H]4[C@@](O)(C(=O)OC)[C@@H]1OC(=O)CCC[P+](c1ccccc1)(c1ccccc1)c1ccccc1)[C@@H]32"
a: -3.34% (active)

q: Also need "COc1ccc2cc(-c3ccnc4c(N=Nc5ccc(Cl)cc5)c(N)nn34)ccc2c1" , thanks.
a: 97.3% (inactive)
